Molecular target: T1, Purified TRB3 protein (purchased from RD) (UniProt Q96RU7 1-358, limits assumed)
T1 construct: Amine-coupled to the Biacore chip; also called Tribbles Homologue 3
T1 sequence (looked up): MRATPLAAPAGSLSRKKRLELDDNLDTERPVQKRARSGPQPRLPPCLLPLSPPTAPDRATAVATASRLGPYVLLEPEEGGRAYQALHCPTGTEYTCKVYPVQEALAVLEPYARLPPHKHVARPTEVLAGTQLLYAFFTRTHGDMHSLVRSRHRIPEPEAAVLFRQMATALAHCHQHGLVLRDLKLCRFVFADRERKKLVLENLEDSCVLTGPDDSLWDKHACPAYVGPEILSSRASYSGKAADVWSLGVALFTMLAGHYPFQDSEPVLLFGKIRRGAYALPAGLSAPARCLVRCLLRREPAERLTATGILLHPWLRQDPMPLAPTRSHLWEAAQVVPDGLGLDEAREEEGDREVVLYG
Assay: SPR, Biacore T200, TRB3 amine-coupled to chip, peptide as analyte, 25° C.
Procedure: The surface plasmon resonance experiment was carried out in a surface plasmon resonator Biacore T200, and the procedure was carried out in accordance with the instructions of the plasma resonator Biacore T200. Specific steps are as follows: 1. Purified TRB3 protein (purchased from RD) was coupled to a CMS chip (purchased from GE) by amidogen, and the unbound protein was eluted at a flow rate of 10 μL/min. The surface of the chip was equilibrated for 2 hours. […]
Bridge positions count the residues as written; N and C are the ends. Square brackets hold non-standard residues; d marks the D form. Ends that are not written are not given here. S5 = C=CCCC[C@](C)(N)C(=O)O
The following binders are listed with their measured Kd values.
Just the number please, in nM, no unit attached.

Worked cases, Kd given:
binder	property name	unit annotation	observed result
HLMACFTC[S5]KKL[S5]KR (staple 9-13; cysteine pairing not given here, Stapled variant of MR2) [polypeptide S9]	Kd	nM	37.1
HLMACFTCAKKLKKR (Synthetic unmodified 15-mer; also called MR2 polypeptide) [polypeptide MR2]	Kd	nM	43.3
H[S5]MAC[S5]TCAKKLKKR (staple 2-6; cysteine pairing not given here, Stapled variant of MR2) [polypeptide S2]	Kd	nM	19.1
HLMACFTCAK[S5]LKK[S5] (staple 11-15; cysteine pairing not given here, Stapled variant of MR2) [polypeptide S11]	Kd	nM	37.7
HL[S5]ACF[S5]CAKKLKKR (staple 3-7; cysteine pairing not given here, Stapled variant of MR2) [polypeptide S3]	Kd	nM	42.7
HLM[S5]CFT[S5]AKKLKKR (staple 4-8, Stapled variant of MR2) [polypeptide S4]	Kd	nM	9.63

What value of Kd has been reported for the following binder? HLMACF[S5]CAK[S5]LKKR (staple 7-11; cysteine pairing not given here, Stapled variant of MR2) [polypeptide S7]
8.95

Any idea what Kd was measured for HLMACFT[S5]AKK[S5]KKR (staple 8-12, Stapled variant of MR2) [polypeptide S8] ?
35.9
